Values compiled from patent US10526388B2.

measurementTarget: HLA-A*24:02 molecule (Homo sapiens, UniProt P04439, D101N/D140Y/D185E/E176V/E190D/F33S/G103R/G107R/I119L/I121M/I306V/K335N/L105A/L180Q/L300P/N151K/N90K/Q86E/Q94H/R106L/R138H/R89G/T104I/T345S/V100E/W191G/Y123F)
testDetails: Binding experiment of peptide to HLA-A*24:02 molecule (C1R-A24 cells, antibody 17A12, FACScan)
measurementParameters: C1R-A24 cells, on ice 4 hours; negative figures given (log of Kd value)
pKd: −log10 of the molar value. Ends that are not written are not given here.
readoutName: pKd

{"columns": ["residues", "val"],
 "data": [
  ["KLTTTIGKL [SEQ ID NO: 9, KLTTTIGKL]", 5.21],
  ["ALNLGIEVI [SEQ ID NO: 7, ALNLGIEVI]", 3.96],
  ["ARLNMEQLL [SEQ ID NO: 11, ARLNMEQLL]", 5.20],
  ["LFDSLFPVI [SEQ ID NO: 2, LFDSLFPVI]", 7.43],
  ["GMIKVKNQL [SEQ ID NO: 10, GMIKVKNQL]", 6.90],
  ["SLQVTRIFL [SEQ ID NO: 4, SLQVTRIFL]", 5.34]
]}

* * *

pKd listing for selected sequences.
measurementTarget: HLA-A*24:02 molecule (Homo sapiens, UniProt P04439, D101N/D140Y/D185E/E176V/E190D/F33S/G103R/G107R/I119L/I121M/I306V/K335N/L105A/L180Q/L300P/N151K/N90K/Q86E/Q94H/R106L/R138H/R89G/T104I/T345S/V100E/W191G/Y123F)
testDetails: Binding experiment of peptide to HLA-A*24:02 molecule (C1R-A24 cells, antibody 17A12, FACScan)
measurementParameters: C1R-A24 cells, on ice 4 hours; negative figures given (log of Kd value)
pKd: −log10 of the molar value. Ends that are not written are not given here.
readoutName: pKd

{"columns": ["residues", "operatorSymbol", "val"],
 "data": [
  ["SLTPQAFEF [SEQ ID NO: 5, SLTPQAFEF]", "=", 7.11],
  ["LLQSASMEL [SEQ ID NO: 8, LLQSASMEL]", "=", 5.49],
  ["SALDINECL [SEQ ID NO: 3, SALDINECL]", "<", 3.00],
  ["MVNELFDSL [SEQ ID NO: 1, MVNELFDSL]", "=", 4.70],
  ["GYICSHSPV [SEQ ID NO: 6, GYICSHSPV]", "=", 6.55]
]}

* * *

measurementTarget: HLA-A*02:01 molecule (Homo sapiens, UniProt P04439, D140Y/D185E/D98H/E176V/E277Q/G131W/G231S/I119V/I121R/I166T/I218V/L300P/L318F/N151K/N90K/P208A/P217A/Q86G/Q94H/R138H/R169H/T345S)
testDetails: Binding experiment of peptide to HLA-A*02:01 molecule (T2 cells, antibody BB7.2, flow cytometer)
measurementParameters: T2 cells, 37° C. 4 hours; negative figures given (log of Kd value)
Ends that are not written are not given here.
readoutName: Kd (µM)

{"columns": ["residues", "operatorSymbol", "val"],
 "data": [
  ["SALDINECL [SEQ ID NO: 3, SALDINECL]", ">", 1000],
  ["ARLNMEQLL [SEQ ID NO: 11, ARLNMEQLL]", "=", 144],
  ["ALNLGIEVI [SEQ ID NO: 7, ALNLGIEVI]", "=", 1.21],
  ["LLQSASMEL [SEQ ID NO: 8, LLQSASMEL]", "=", 0.73],
  ["SLTPQAFEF [SEQ ID NO: 5, SLTPQAFEF]", "=", 11.9],
  ["SLQVTRIFL [SEQ ID NO: 4, SLQVTRIFL]", "=", 0.616]
]}

* * *

pKd listing for selected sequences.
measurementTarget: HLA-A*02:01 molecule (Homo sapiens, UniProt P04439, D140Y/D185E/D98H/E176V/E277Q/G131W/G231S/I119V/I121R/I166T/I218V/L300P/L318F/N151K/N90K/P208A/P217A/Q86G/Q94H/R138H/R169H/T345S)
testDetails: Binding experiment of peptide to HLA-A*02:01 molecule (T2 cells, antibody BB7.2, flow cytometer)
measurementParameters: T2 cells, 37° C. 4 hours; negative figures given (log of Kd value)
pKd: −log10 of the molar value. Ends that are not written are not given here.

{"columns": ["residues", "operatorSymbol", "pKd"],
 "data": [
  ["KLTTTIGKL [SEQ ID NO: 9, KLTTTIGKL]", "=", 4.97],
  ["LFDSLFPVI [SEQ ID NO: 2, LFDSLFPVI]", "=", 5.07],
  ["GYICSHSPV [SEQ ID NO: 6, GYICSHSPV]", "<", 3.00],
  ["MVNELFDSL [SEQ ID NO: 1, MVNELFDSL]", "=", 5.31],
  ["GMIKVKNQL [SEQ ID NO: 10, GMIKVKNQL]", "=", 4.76]
]}
